- Tested on: HCI-024 (organoid from a breast cancer xenograft)
- procedure_details: CTG-3D luminescence at 96 h relative to day-0 seeding control (ratio to day 0); higher = more growth / less cytotoxicity; PDxO 3D drug screen, 96 h, CTG-3D normalised to day-0 seeding control.
- measurement_setup: 0.00025 µM; days in culture: 122
This section presents compounds with their documented CTG-3D luminescence at 96 h values.
Answer with a number only.

## Input Consider the compound "CC(=O)O[C@H]1C(=O)[C@@]2(C)[C@H]([C@H](OC(=O)c3ccccc3)[C@]3(O)C[C@H](OC(=O)[C@H](O)[C@@H](NC(=O)c4ccccc4)c4ccccc4)C(C)=C1C3(C)C)[C@]1(OC(C)=O)CO[C@@H]1C[C@@H]2O" and give its measured CTG-3D luminescence at 96 h.
## Output 2.67

## Input Any idea what its CTG-3D luminescence at 96 h is? The compound is CN(Cc1cnc2nc(N)nc(N)c2n1)c1ccc(C(=O)N[C@@H](CCC(=O)O)C(=O)O)cc1 [methotrexate]
## Output 2.22

## Input For "C=CCn1c(=O)c2cnc(Nc3ccc(N4CCN(C)CC4)cc3)nc2n1-c1cccc(C(C)(C)O)n1" , what is its reported CTG-3D luminescence at 96 h?
## Output 2.07

## Input Which CTG-3D luminescence at 96 h value is on record for "CCN(c1cc(C#CCN2CCOCC2)cc(C(=O)NCc2c(C)cc(C)[nH]c2=O)c1C)[C@H]1CC[C@H](N(C)CCOC)CC1" ?
## Output 2.29

## Input Entry under review: "NC(=O)Nc1cc(-c2cccc(F)c2)sc1C(=O)N[C@H]1CCCNC1" . Reported CTG-3D luminescence at 96 h?
## Output 2.38
